- tgt: L1210
- test: Transport influx which is determined by competitive binding for the transport protein; expressed as Ki (uM)
Here, each record is paired with measured Ki data.
metric: Ki

{"columns": ["molecule", "result"],
 "data": [
  ["CCCC(Cc1cnc2nc(N)nc(N)c2n1)c1ccc(C(=O)NC(CCC(=O)O)C(=O)O)cc1 (configuration not stated)", "1100 nM"],
  ["CCCCCC(Cc1cnc2nc(N)nc(N)c2n1)c1ccc(C(=O)NC(CCC(=O)O)C(=O)O)cc1 (configuration not stated)", "1000 nM"]
]}

====

In what follows, each item is paired with its Ki for Dihydrofolate reductase (Mus musculus, UniProt P00375).
metric: Ki

{"columns": ["molecule", "metric", "result"],
 "data": [
  ["C#CCC(Cc1cnc2nc(N)nc(N)c2n1)c1ccc(C(=O)NC(CCC(=O)O)C(=O)O)cc1 (centres undefined)", "Ki", "18.2 pM"],
  ["CCCC(Cc1cnc2nc(N)nc(N)c2n1)c1ccc(C(=O)NC(CCC(=O)O)C(=O)O)cc1 (centres undefined)", "Ki", "9.2 pM"],
  ["Nc1nc(N)c2nc(CCc3ccc(C(=O)N[C@@H](CCC(=O)O)C(=O)O)cc3)cnc2n1", "Ki", "3.6 pM"],
  ["CC(Cc1cnc2nc(N)nc(N)c2n1)c1ccc(C(=O)NC(CCC(=O)O)C(=O)O)cc1 (centres undefined)", "Ki", "4.1 pM"]
]}

Origin of measurements: ChEMBL document CHEMBL1126936
